All figures here come from paper PMC8467814.

Target: RSK2 (90 kDa ribosomal protein S6 kinase 2) (Homo sapiens, UniProt P51812)
Sequence (P51812 whole entry): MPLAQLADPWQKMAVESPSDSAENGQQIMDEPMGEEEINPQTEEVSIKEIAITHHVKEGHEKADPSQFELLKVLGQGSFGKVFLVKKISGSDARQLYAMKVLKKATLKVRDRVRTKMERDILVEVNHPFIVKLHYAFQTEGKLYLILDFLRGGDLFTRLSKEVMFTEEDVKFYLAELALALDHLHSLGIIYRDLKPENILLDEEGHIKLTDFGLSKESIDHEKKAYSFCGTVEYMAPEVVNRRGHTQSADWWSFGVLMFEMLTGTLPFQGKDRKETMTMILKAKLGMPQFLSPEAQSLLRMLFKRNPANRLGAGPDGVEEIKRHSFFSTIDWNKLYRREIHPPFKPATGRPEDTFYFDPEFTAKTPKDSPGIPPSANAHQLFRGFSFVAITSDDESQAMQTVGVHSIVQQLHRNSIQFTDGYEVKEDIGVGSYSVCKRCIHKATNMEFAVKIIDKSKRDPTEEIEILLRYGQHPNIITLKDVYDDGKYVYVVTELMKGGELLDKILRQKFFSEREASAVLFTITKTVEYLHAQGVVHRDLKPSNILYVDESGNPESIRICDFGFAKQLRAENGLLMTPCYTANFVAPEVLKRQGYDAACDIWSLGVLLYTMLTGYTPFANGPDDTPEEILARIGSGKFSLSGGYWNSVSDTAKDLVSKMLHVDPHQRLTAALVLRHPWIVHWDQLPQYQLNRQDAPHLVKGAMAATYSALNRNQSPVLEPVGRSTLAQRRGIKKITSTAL
OUTCOME_MEASURE: IC50 (µM)
A number alone suffices; assume µM.

Form field - read-out: IC50; system: RSK2 (90 kDa ribosomal protein S6 kinase 2) (Homo sapiens, UniProt P51812); submitted item: O[C@]12C=C(c3nccc4c3[nH]c3ccccc34)[C@@H]3CCN(CCCC/C=C\CC1)C[C@@]31C[C@@H]3/C=C\CCCCN3[C@H]12 [MZA, Manzamine A]
108

* * *

Biological target: RSK1 (90 kDa ribosomal protein S6 kinase 1; MAPKAP-K1α) (Rattus norvegicus, UniProt Q63531)
Construct: gene Rps6ka1
Sequence (Q63531 whole entry): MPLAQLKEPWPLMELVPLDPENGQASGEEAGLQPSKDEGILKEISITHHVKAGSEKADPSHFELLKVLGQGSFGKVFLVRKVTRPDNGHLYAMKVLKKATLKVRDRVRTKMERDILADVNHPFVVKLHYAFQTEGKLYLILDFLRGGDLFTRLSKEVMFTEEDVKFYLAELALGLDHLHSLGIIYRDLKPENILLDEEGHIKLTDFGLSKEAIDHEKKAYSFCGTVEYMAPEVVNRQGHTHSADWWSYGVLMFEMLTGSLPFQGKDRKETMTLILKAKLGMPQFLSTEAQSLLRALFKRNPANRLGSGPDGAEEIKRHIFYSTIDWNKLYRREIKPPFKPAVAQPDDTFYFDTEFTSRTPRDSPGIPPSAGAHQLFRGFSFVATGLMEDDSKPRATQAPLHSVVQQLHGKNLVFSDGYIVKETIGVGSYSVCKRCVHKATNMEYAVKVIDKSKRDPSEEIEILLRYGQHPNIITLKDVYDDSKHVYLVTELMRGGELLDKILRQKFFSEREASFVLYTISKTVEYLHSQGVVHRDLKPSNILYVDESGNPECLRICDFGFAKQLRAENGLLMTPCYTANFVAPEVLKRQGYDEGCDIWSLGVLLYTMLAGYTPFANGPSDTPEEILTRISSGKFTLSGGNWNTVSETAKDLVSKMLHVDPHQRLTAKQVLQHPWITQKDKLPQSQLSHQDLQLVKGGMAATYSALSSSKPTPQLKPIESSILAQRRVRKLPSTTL
Test: radiometric […]-ATP kinase assay with KKLNRTLSVA peptide, P81 filter; also […] inhibition at […] in kinase panel
Assay type: biochemical
OUTCOME_MEASURE: pIC50
// pIC50: -log10(molar conc.)

What value of measured pIC50 is listed for `O[C@]12C=C(c3nccc4c3[nH]c3ccccc34)[C@@H]3CCN(CCCC/C=C\CC1)C[C@@]31C[C@@H]3/C=C\CCCCN3[C@H]12` ?
4.82
